B1: glmS ribozyme (parent)
chain: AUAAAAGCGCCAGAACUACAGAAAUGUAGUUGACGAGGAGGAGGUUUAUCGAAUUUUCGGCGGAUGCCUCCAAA

- Variants of: B1
- Experimental Details: self-cleavage kobs at 40 uM GlcN6P; higher = faster cleavage; RNA array
- Condition Set: with glucosamine-6-phosphate
Variants at the floor of the assay were thinned out.
Property Label: self-cleavage kobs at 40 uM GlcN6P (s⁻¹)

- A42G G66A U69A: 0.000356
- A14U A53U C71U: 9.83e-05
- A6G C50G C58G: 0.000111
- U54G A64C C67A C70U: 0.000151
- U30G A53U: 0.000261
- A15G U54A C71A: 0.000174
- A12U G41U A42G: 0.000102
- U47G U54G: 0.00053
- A14G G66U: 0.000114
- C8U G38U U49G C50A C68G: 0.00105
- U30A U55G: 0.000142
- A14C U31A U54A: 0.000186
